This collection of values is drawn from patent US20140348747A1.

# Test target: T1, V58A
# T1 chain: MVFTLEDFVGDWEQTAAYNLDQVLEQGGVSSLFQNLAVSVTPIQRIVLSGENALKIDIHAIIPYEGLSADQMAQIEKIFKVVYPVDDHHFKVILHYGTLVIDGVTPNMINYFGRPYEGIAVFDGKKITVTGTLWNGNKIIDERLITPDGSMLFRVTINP
# Condition details: modification not given
Reported property: pKd
Give bare numbers, as −log10 of the molar value.

Per the record, NVSGWRLFKKISN [NLpep78] has pKd of 7.82
